System: NCI-H460 lung
Assay: NCI tumour cell line growth inhibition, 48 h
PROPERTY LABEL: TGI

COMPOUND	MEASURED VALUE
O=C1[C@@H]2C(c3ccc(Br)cc3)=NO[C@@H]2C(=O)N1c1ccc(Cc2ccc(N3C(=O)[C@H]4C(c5ccc(Br)cc5)=NO[C@H]4C3=O)cc2)cc1	> 40 µM

### Prompt GET /values?readout=TGI&item= O=C(O)c1nc2ccccc2nc1Nc1ccc(Cl)c(Cl)c1
### Response 82.5 µM

### Prompt And then COC1C2C[C@@H](O)CCC2C(C(=O)OCCl)C[C@H]1O (stereo partly drawn) , what is it?
### Response > 100 µM

### Prompt Similarly, O=C1N=C2SC=C(NC(=S)Nc3ccccc3)N2NC12c1ccccc1-c1ccccc12 ?
### Response > 10 µM

### Prompt Next entry: CCc1n[nH]c(=O)n1CCCCCCCCn1c(CC)n[nH]c1=O
### Response > 100 µM

### Prompt Now consider COC1(CC[C@@H](C)COC2OC(CO)C(O)C(O)C2O)O[C@H]2C[C@H]3[C@@H]4CC=C5C[C@@H](OC6OC(CO)C(OC7OC(C)C(O)C(O)C7O)C(O)C6OC6OC(C)C(O)C(O)C6O)CC[C@]5(C)[C@H]4CC[C@]3(C)[C@H]2[C@@H]1C (stereo partly drawn) .
### Response 5.43 µM

### Prompt Item: COc1nc(N=P(c2ccccc2)(c2ccccc2)c2ccccc2)cc(=O)n1C
### Response > 100 µM

### Prompt Consider next the compound CCCn1c2c(c3ccccc3c1=O)C(=O)c1ccccc1-2 in the same way.
### Response > 100 µM

* * *

Tested on: NCI-H226 lung
Assay: NCI tumour cell line growth inhibition, 48 h; in the data active means GI50 below about 0.43 µM; inactive means the rest
// allowed return values: 1 (yes) = active, 0 (no) = inactive

Completed entries (count: 2):
TEST SMILES	ASSIGNED CATEGORY
NC(=O)c1ccc2c(c1)-c1nc-2nc2[n-]c(nc3nc(nc4[n-]c(n1)c1ccc(C(N)=O)cc41)-c1ccc(C(N)=O)cc1-3)c1ccc(C(N)=O)cc21.[Co+2]	0 (no)
CCOC(=O)[C@@H](C)C[C@H](Cc1ccccc1)NC(=O)c1csc([C@@H](C[C@H](C(C)C)N(C)C(=O)[C@@H](NC(=O)[C@H]2CCCCN2C)C(C)(C)CC)OC(C)=O)n1	1 (yes)

Okay, now this molecule:
### Prompt # outcome recorded in this test, key = COc1cnc2c(c1)C(=O)c1c-2n(CCCNC2=NCCS2)c(=O)c2cc(F)ccc12
### Response 1 (yes)

* * *

Test system: SK-OV-3 ovarian
Assay: NCI tumour cell line growth inhibition, 48 h
Below, each entry is listed with its recorded TGI.

### Prompt TGI lookup needed for COC(=O)C(=O)Cc1nc2ccccc2s1 , thanks.
### Response > 100 µM

### Prompt Subsequent entry: COc1cc(/C=C2\C(=O)N(Cc3ccc(Cl)cc3)c3ccccc32)cc(OC)c1OC
### Response > 89.4 µM

### Prompt And the next one, O=[N+]([O-])c1ccc(C2=Nc3ccccc3S(=O)C(c3ccccc3)C2)cc1 (stereo unspecified) ?
### Response 73.6 µM

### Prompt Can you handle CNC(=O)c1n[nH]n(C2CCCCC2)c1=S next?
### Response > 100 µM

### Prompt // next record CC1=NN=C(C)C1N=Nc1ccc2nc(C)[nH]c2c1
### Response 24.2 µM

### Prompt Do the same for CN(C)c1ccc(/C=C\c2ccnc3ccccc23)cc1 please
### Response > 100 µM

* * *

Tested on: SNB-75 CNS
Experiment: NCI tumour cell line growth inhibition, 48 h; in the data active means GI50 below about 0.43 µM; inactive means the rest
Please answer using one outcome listed in active, inactive

Record excerpt, results attached:
COMPOUND	ASSIGNED CATEGORY
CC1CC2C3CCC4=CC(=O)C=CC4(C)C3(F)C(O)CC2(C)C1(O)C(=O)COP(=O)(O)O (stereo not drawn)	inactive
COc1ccc2c(c1)OC(N)=C(C#N)C2c1cc(OC)c(OC)c(OC)c1 (stereo not drawn)	active

### Prompt Please state the recorded outcome for this compound: NC1NC=NC2C1N=CN2C1OC(CO)C2[O][Sn][O]C21 (stereo not drawn)
### Response inactive

### Prompt Another compound to check: N#CCn1c(=O)c(Oc2ccc(F)cc2F)cc2cnc(NC3CCOCC3)nc21
### Response inactive

### Prompt Would you mind doing CCCCCC(=O)N[C@@H](c1ccco1)[C@@H](O)C(=O)O[C@H]1C[C@@]2(O)[C@@H](OC(=O)c3ccccc3)[C@@H]3[C@]4(OC(C)=O)CO[C@@H]4C[C@H](O)[C@@]3(C)C(=O)[C@H](OC(C)=O)C(=C1C)C2(C)C as well?
### Response active

### Prompt Similarly, C=C1C[C@H]2C=Nc3cc(OCCCOc4cc5c(cc4OC)C(=O)N4CC(=C)C[C@H]4C=N5)c(OC)cc3C(=O)N2C1 ?
### Response active

### Prompt And what about the compound COC(=O)NC1C(C)OC(OC2C/C=C(/C)C3C=CC4C(OC5CC(OC6CCC(OC7CC(O)C(OC8CCC(O)C(C)O8)C(C)O7)C(C)O6)C(OC(C)=O)C(C)O5)C(C)CC(C)C4C3(C)/C(O)=C3/C(=O)OC4(CC(C=O)=CC(O)C4/C=C\2C)C3=O)CC1(C)[N+](=O)[O-] (stereo not drawn) ?
### Response inactive

### Prompt CC(C)=CCc1cc2c(cc1O)C1=C(C(=O)C3=C(C1=O)S(=O)(=O)CCN3)C(C=C(C)C)O2 (stereo not drawn) ?
### Response inactive

* * *

Test system: SW-620 colon
Assay: NCI tumour cell line growth inhibition, 48 h; in the data active = GI50 below about 0.43 µM; inactive = the rest
Please answer using one outcome listed in Yes for active, No for inactive

Here are 4 compounds together with their reported answers.
>>> print(df.to_string())
                                test_smiles  assigned_category
0  CN=C(N)c1ccc(N=C(N)c2ccc(-c3ccc(C(N)=Nc4ccc(C(N)=NC)cc4)cc3)cc2)cc1                 No
1  O=C1NC(=NCCc2ccc(F)cc2)S/C1=C\c1ccc2ncccc2c1                 No
2  COc1ccc(-c2cc(-c3ccc(Nc4nc(Nc5ccccc5)nc(Nc5ccc(Cl)cc5)n4)cc3)nc(N)n2)cc1                 No
3   C#Cc1cccc(Nc2ncnc3cc(NC(=O)CCl)ccc23)c1                 No

### Prompt Record request — test call for Clc1nccc2c(-c3csc(-c4c[nH]c5ccc(Br)cc45)n3)c[nH]c12
### Response No

### Prompt // next record N#CCn1c(=O)c(Oc2ccc(F)cc2F)cc2cnc(NC3CCOCC3)nc21
### Response No

### Prompt Also c1ccc(-c2oc(-c3ccccc3)c(CN3CCCCC3)c2CN2CCCCC2)cc1 ?
### Response No

### Prompt Now try O=C(Nc1ccc(Oc2ccc3nc(NC(=O)c4ccco4)[nH]c3c2)cc1)Nc1cc(C(F)(F)F)ccc1F .
### Response No

### Prompt Here is the next compound: COc1ccc2nc3cc(Cl)ccc3c(NCCCNCCO)c2c1
### Response Yes

### Prompt Also CCOC(=O)c1c(-c2ccccc2)[n+](=O)c2cc(Cl)c(Cl)cc2n1[O-] ?
### Response No

### Prompt And the next one, CCOCC1(COCC)CCC(c2[nH]ncc2CN(C)CCNC)CC1 ?
### Response No

### Prompt # iterate: COc1cc2oc(-c3cccc(C(=O)Nc4ccc(Cl)cc4)c3)cc(=O)c2c(OC)c1OC
### Response No

* * *

Recorded TGI by entry
Test system: SF-539 CNS
Assay: NCI tumour cell line growth inhibition, 48 h
Where a SMILES comes first, the peptide text is derived from it. The star is where a group is joined. Trt = c1ccc(C(c2ccccc2)(c2ccccc2)*)cc1; Cbz = O=C(OCc1ccccc1)*

MOLECULE	PROPERTY LABEL	MEASURED VALUE
O=C(Nc1ccc(Oc2ccc3nc(NC(=O)c4ccco4)[nH]c3c2)cc1)Nc1cc(C(F)(F)F)ccc1F	TGI	5.69 µM
O=[N+]([O-])C(=C/c1ccccc1)/C(=C\c1ccccc1)[N+](=O)[O-]	TGI	12.7 µM
CC(C)/C=C1\CCC(CN(C)C)C1=O (stereo unspecified)	TGI	19.8 µM
CCOC(=O)C(NC(=O)OCc1ccccc1)C(=O)O (stereo unspecified)	TGI	> 100 µM

### Prompt Consider the molecule shown here: CC(C)c1cccc(C(C)C)c1NC(=O)C(=O)Cc1nc2ccc([N+](=O)[O-])cc2[nH]c1=O What is its recorded TGI?
### Response > 100 µM

### Prompt Now the same for C[N+](C)(CCCCCC[N+](C)(C)CCCN1C(=O)c2cccc3cccc(c23)C1=O)CCCN1C(=O)c2cccc3cccc(c23)C1=O
### Response > 100 µM

### Prompt Also check O=C1CN(c2ccccc2)Cc2nc(Cl)ccc2N1
### Response > 100 µM

### Prompt Let us now turn to COC(=O)C(CO)NC(=O)C(CSC(c1ccccc1)(c1ccccc1)c1ccccc1)NC(=O)OCc1ccccc1 (stereo unspecified) (Cbz-Cys(Trt)-Ser-OMe; configuration not given here)
### Response 26.3 µM

### Prompt Repeat for the following molecule: O=C1/C(=C/c2ccc(Cl)c(Cl)c2)CN(C(=O)C(Cl)Cl)C/C1=C\c1ccc(Cl)c(Cl)c1
### Response 0.444 µM

### Prompt Query CC(C)Oc1c(C2(c3ccccc3)SCCCS2)c(=O)c1=O next
### Response > 100 µM

### Prompt And COc1ccc(-n2c(CCC(=O)O)nc3c2C(=O)c2ccccc2C3=O)cc1 ?
### Response > 100 µM

### Prompt Another molecule to check: COc1ccc(-c2cc(=O)c3c(O)c(OC)c(OC)c(OC)c3o2)cc1OC
### Response > 100 µM
